Source: PubChem BioAssay (NCI)

# Test system: NCI-H522 lung
# TEST PROTOCOL: NCI-60 one-dose screen, 48 h
# MEASUREMENT PARAMETERS: 10 µM
This is part of a sample that, as a whole, favours compounds with a hit. Of some 83,000 tested, about 20% had one in any assay. Activity calls are given as the source filed them. How the source made its calls: active means growth percent below 10; inactive means the rest.
Answer with one of the outcomes given here: active, inactive

Consider the worked cases shown below.
[
  {
    "MOLECULE": "NC(=O)c1cc(Cl)ccc1NC(=O)COc1ccccc1",
    "CLASSIFICATION": "inactive"
  },
  {
    "MOLECULE": "CCN1C(=O)C2(Nc3ccccc3S2)c2cc(C)ccc21 (stereo not drawn)",
    "CLASSIFICATION": "inactive"
  },
  {
    "MOLECULE": "COc1cccc(C2C3=C(COC3=O)N(CCO)c3cc4c(cc32)CCC4)c1 (stereo not drawn)",
    "CLASSIFICATION": "active"
  },
  {
    "MOLECULE": "O=C1C(Br)=C(c2ccccc2)C(=O)C(Br)=C1c1ccccc1",
    "CLASSIFICATION": "active"
  },
  {
    "MOLECULE": "COC(=O)c1c2c(c(C)[n+]([O-])c1C)C(=O)C=C(NCc1ccc(Cl)cc1)C2=O",
    "CLASSIFICATION": "active"
  }
]

Please let me know the test result on file for CN1CCc2cccc3c2C1Cc1ccc(O)c(O)c1-3 (stereo not drawn) .
inactive

Please let me know the test result on file for `COC(=O)c1c2c(c(C)[n+]([O-])c1C)C(=O)C(NCc1ccc(O)cc1)=CC2=O` .
active

Please let me know the test result on file for COC(=O)C1C2CC3c4[nH]c5cc(OC)ccc5c4CCN3CC2CC(OC2CCCCO2)C1OC (stereo not drawn) .
inactive

Please let me know the test result on file for `COc1cc(NC(=O)COc2ccccc2)c(C(N)=O)cc1OC` .
active

Please let me know the test result on file for `O=C(c1ccc2ncc(-c3nc(NC4CC4)ncc3F)n2c1)N1CCOCC1` .
inactive

Please let me know the test result on file for `O=S(=O)(Nc1ccccc1Cl)c1ccc(-c2cnc(C3CC3)o2)cc1` .
inactive

Please let me know the test result on file for COc1cccc(C2C3=C(COC3=O)N(CCO)c3cc4c(cc32)OCO4)c1 (stereo not drawn) .
active

Please let me know the test result on file for `COc1nc2c(cc1S(=O)(=O)c1ccccc1)CCc1c-2cnn1-c1cccc(Cl)c1` .
inactive

Please let me know the test result on file for `CSc1ccc(OC(C)=O)cc1C` .
inactive
